Tested on: T-47D cells
Test: MTT antiproliferative assay, breast cancer T-47D cells
Conditions: Homo sapiens, T47D, 72 h, read-out: IC50, cytotoxicity, Breast T-47D
Each entry below carries its recorded IC50.
property label: IC50

>  <molecule>
CC[C@@]1(C)CCC[C@]2(C)[C@H]3C[C@@H](OC(=O)C[C@@H](C)O)[C@]4(C)[C@@H](C=O)C(C(C)=O)=CC[C@H]4[C@]3(C)CC[C@@H]12 (relative stereo)

>  <observed result>
2.19 mg/L

$$$$
>  <molecule>
CC[C@@H](O)CC(=O)O[C@@H]1C[C@@H]2[C@@]3(C)CCC[C@](C)(CC)[C@@H]3CC[C@@]2(C)[C@@H]2CC=C(C(C)=O)[C@H](C=O)[C@@]12C (relative stereo)

>  <observed result>
1.87 mg/L

$$$$
>  <molecule>
COc1cccc2c1C(=O)c1c(O)c3c(c(O)c1C2=O)C[C@@](O)(C(=O)CO)C[C@@H]3O[C@H]1C[C@H](N)[C@H](O)[C@H](C)O1 [Doxorubicin, reference compound]

>  <observed result>
0.08 mg/L

$$$$
>  <molecule>
CC(C)=CCC/C(C)=C/CC/C(C)=C/CC/C(C)=C/CC1=CC(=O)C=CC1=O

>  <observed result>
1.06 mg/L

$$$$

----------
Tested on: U937 cells
Assay: MTT antiproliferative assay, lymphoma U937 cells
Details: Homo sapiens, U-937, 72 h, read-out: IC50, cytotoxicity, Lymphoma U937
Each entry below carries its recorded IC50.
property label: IC50 (µg/mL)

>  <molecule>
CC[C@@]1(C)CCC[C@]2(C)[C@H]3C[C@@H](OC(=O)C[C@@H](C)O)[C@]4(C)[C@@H](C=O)C(C(C)=O)=CC[C@H]4[C@]3(C)CC[C@@H]12 (relative stereo)

>  <units symbol>
µg/mL

>  <observed result>
0.01

$$$$
>  <molecule>
COc1cccc2c1C(=O)c1c(O)c3c(c(O)c1C2=O)C[C@@](O)(C(=O)CO)C[C@@H]3O[C@H]1C[C@H](N)[C@H](O)[C@H](C)O1 [Doxorubicin, reference compound]

>  <units symbol>
µg/mL

>  <observed result>
0.21

$$$$
>  <molecule>
CC[C@@H](O)CC(=O)O[C@@H]1C[C@@H]2[C@@]3(C)CCC[C@](C)(CC)[C@@H]3CC[C@@]2(C)[C@@H]2CC=C(C(C)=O)[C@H](C=O)[C@@]12C (relative stereo)

>  <units symbol>
µg/mL

>  <observed result>
0.61

$$$$
>  <molecule>
CC(C)=CCC/C(C)=C/CC/C(C)=C/CC/C(C)=C/CC1=CC(=O)C=CC1=O

>  <units symbol>
µg/mL

>  <observed result>
0.65

$$$$

----------
Each entry below carries its recorded IC50.
Test system: Sup-T1 cells
Assay: MTT antiproliferative assay, lymphoma Sup-T1 cells
Conditions: Homo sapiens, SUP-T1, 72 h, read-out: IC50, cytotoxicity, Lymphoma Sup-T1

>  <molecule>
CC[C@@H](O)CC(=O)O[C@@H]1C[C@@H]2[C@@]3(C)CCC[C@](C)(CC)[C@@H]3CC[C@@]2(C)[C@@H]2CC=C(C(C)=O)[C@H](C=O)[C@@]12C (relative stereo)

>  <tgt>
Sup-T1 cells

>  <IC50 [µg/mL]>
0.42

$$$$
>  <molecule>
COc1cccc2c1C(=O)c1c(O)c3c(c(O)c1C2=O)C[C@@](O)(C(=O)CO)C[C@@H]3O[C@H]1C[C@H](N)[C@H](O)[C@H](C)O1 [Doxorubicin, reference compound]

>  <tgt>
Sup-T1 cells

>  <IC50 [µg/mL]>
0.02

$$$$
>  <molecule>
CC(C)=CCC/C(C)=C/CC/C(C)=C/CC/C(C)=C/CC1=CC(=O)C=CC1=O

>  <tgt>
Sup-T1 cells

>  <IC50 [µg/mL]>
0.33

$$$$
>  <molecule>
CC[C@@]1(C)CCC[C@]2(C)[C@H]3C[C@@H](OC(=O)C[C@@H](C)O)[C@]4(C)[C@@H](C=O)C(C(C)=O)=CC[C@H]4[C@]3(C)CC[C@@H]12 (relative stereo)

>  <tgt>
Sup-T1 cells

>  <IC50 [µg/mL]>
0.13

$$$$

These data points were gathered from paper PMC5086919.
